tested on: MDA-MB-231 complex spheroid viability; assay: Anticancer human tumor MDA-MB-231/ATCC cell line growth inhibition; conditions: second compound 1 µM; first compound 3.16 µM; active compounds read low;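 further: drug exposure lasted 7 days starting on day 3 of spheroid growth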
Here, each record is paired with measured viability, T/C data.
value_type: viability, T/C

{"columns": ["compound", "meas_value"],
 "data": [
  ["CC1COCCN1c1cc(C2(S(C)(=N)=O)CC2)nc(-c2ccnc3[nH]ccc23)n1 (configuration not stated) + NC1CC1c1ccc(-c2cccc(O)c2)cc1", "23.9%"],
  ["O=C(c1cc(Cc2n[nH]c(=O)c3ccccc23)ccc1F)N1CCN(C(=O)C2CC2)CC1 + NC1CCC(NC2CC2c2ccccc2)CC1", "67.1%"],
  ["COc1ccc([C@@H](O)c2cc(-c3ncnc4cc(N5CCOCC5)ccc34)c(F)cc2Cl)nn1 + NC1CC1c1ccc(-c2cccc(O)c2)cc1", "16.2%"],
  ["CC(C)c1c(-c2ccccc2)nc2c(C#N)c[nH]n2c1=O + NC1CCC(NC2CC2c2ccccc2)CC1", "106%"],
  ["O=C(c1cc(Cc2n[nH]c(=O)c3ccccc23)ccc1F)N1CCN(C(=O)C2CC2)CC1 + NC1CC1c1ccc(-c2cccc(O)c2)cc1", "32%"],
  ["CC1(C)CCC(CN2CCN(c3ccc(C(=O)NS(=O)(=O)c4ccc(NCC5CCOCC5)c([N+](=O)[O-])c4)c(Oc4cnc5[nH]ccc5c4)c3)CC2)=C(c2ccc(Cl)cc2)C1 + NC1CCC(NC2CC2c2ccccc2)CC1", "72.8%"],
  ["CC1COCCN1c1cc(C2(S(C)(=N)=O)CC2)nc(-c2ccnc3[nH]ccc23)n1 (configuration not stated) + NC1CCC(NC2CC2c2ccccc2)CC1", "40%"]
]}
